Taken from ChEMBL document CHEMBL5108067.

Biological target: Ubiquitin carboxyl-terminal hydrolase 8 (Homo sapiens) (UniProt P40818)
Sequence (P40818 whole entry, the tested form may be a part): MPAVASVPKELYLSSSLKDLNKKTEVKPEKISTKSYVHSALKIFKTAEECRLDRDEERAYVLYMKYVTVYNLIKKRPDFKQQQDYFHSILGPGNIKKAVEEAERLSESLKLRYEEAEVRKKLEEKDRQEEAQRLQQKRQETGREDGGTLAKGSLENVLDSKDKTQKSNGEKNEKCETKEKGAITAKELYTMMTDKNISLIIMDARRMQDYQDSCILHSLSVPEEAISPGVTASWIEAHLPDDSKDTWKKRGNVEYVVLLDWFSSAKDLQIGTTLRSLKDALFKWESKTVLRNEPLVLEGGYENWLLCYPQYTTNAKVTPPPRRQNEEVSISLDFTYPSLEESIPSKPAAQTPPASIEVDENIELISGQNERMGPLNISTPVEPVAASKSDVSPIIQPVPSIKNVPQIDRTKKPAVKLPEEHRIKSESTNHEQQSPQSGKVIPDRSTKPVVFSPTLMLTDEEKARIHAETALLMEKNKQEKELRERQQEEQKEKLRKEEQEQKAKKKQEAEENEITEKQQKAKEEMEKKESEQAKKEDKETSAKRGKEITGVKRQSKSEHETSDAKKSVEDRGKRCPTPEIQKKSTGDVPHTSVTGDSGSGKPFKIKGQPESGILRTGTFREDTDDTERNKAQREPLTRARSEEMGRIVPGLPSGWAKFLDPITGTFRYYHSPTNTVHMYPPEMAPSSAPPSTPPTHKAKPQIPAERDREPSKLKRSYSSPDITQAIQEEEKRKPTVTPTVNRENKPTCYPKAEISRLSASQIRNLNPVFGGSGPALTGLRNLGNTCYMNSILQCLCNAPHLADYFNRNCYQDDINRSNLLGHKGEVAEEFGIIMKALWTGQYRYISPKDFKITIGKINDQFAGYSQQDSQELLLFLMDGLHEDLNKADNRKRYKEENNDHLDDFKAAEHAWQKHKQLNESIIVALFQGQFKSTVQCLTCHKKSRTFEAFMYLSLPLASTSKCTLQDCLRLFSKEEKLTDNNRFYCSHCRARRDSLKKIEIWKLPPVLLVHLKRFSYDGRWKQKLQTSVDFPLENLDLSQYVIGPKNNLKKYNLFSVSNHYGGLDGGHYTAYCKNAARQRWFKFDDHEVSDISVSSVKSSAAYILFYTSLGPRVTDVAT
Experiment: Inhibition of N-terminal His-6 tagged USP8 (734 to 1110 residues) (unknown origin) expressed in Escherichia coli BL21 (DE3) cells at 10 nM measured after 3 hrs by fluorescence based Plate reader method relative to control
Settings: values are per cent of control
Please provide measured residual activity for the entries that follow.
Give the number; % is assumed, so skip it.

Please give the measured residual activity for this molecule: O=C1c2ccccc2C(=O)c2oc(-c3c(F)c(F)cc(F)c3F)nc21 38.3

Then what about the molecule CN1CCN(CCOc2cccc(-c3nc4c(o3)C(=O)c3ccccc3C4=O)c2)CC1 ? 76.4

Next molecule up: O=C1c2ccccc2C(=O)c2oc(-c3ccc(Cl)cc3Cl)nc21 58.4

Now give it for Cc1ccc(F)c(-c2nc3c(o2)C(=O)c2ccccc2C3=O)c1F too. 62.1

Request: COc1cc(O[C@@H]2CCN(C)C2)cc(-c2nc3c(o2)C(=O)c2ccccc2C3=O)c1 71.2

And the next one, COc1cccc(-c2nc3c(o2)C(=O)c2ccccc2C3=O)c1 ? 52.7

Another molecule: COc1ccc2c(c1)C(=O)c1nc(-c3cccc(OCCN(C)C)c3)[nH]c1C2=O 95.3

Similarly, COc1ccc(F)c(-c2nc3c(o2)C(=O)c2ccccc2C3=O)c1 ? 61.1

Another: O=C1c2ccccc2C(=O)c2oc(-c3ccc(C(F)(F)F)cc3)nc21 37.8

And then O=C1c2ccccc2C(=O)c2oc(-c3c(F)ccc(F)c3F)nc21 , what is it? 36.6
